These data points were gathered from patent US20100113523A1.

- TARGET_DESC: tryptase enzyme (Homo sapiens)
- Construct: purchased Millipore Inc., Westbury, Mass
- Sequence (P20231 31-275): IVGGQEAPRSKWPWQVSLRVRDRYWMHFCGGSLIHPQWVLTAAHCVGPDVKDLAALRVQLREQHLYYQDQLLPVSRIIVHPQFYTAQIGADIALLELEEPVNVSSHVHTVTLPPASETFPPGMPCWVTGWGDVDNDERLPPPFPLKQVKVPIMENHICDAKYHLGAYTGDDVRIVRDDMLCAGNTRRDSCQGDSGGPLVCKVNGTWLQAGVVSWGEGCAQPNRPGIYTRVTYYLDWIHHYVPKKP
- EXPERIMENT_DESCRIPTION: Tryptase inhibition (cleavage of tosyl-gly-pro-lys-pNA, absorbance at 405 nm)
- Type: biochemical
- RECORDED_CONDITIONS: relative to controls; 2 h at 37° C.
PROPERTY_MEASURED: IC50 (µM)
Answers are plain numbers, in µM.

Q) For the compound shown here, CCCCCC/C=C/CN(c1ccc(C)cc1)c1ccc(SSc2ccc(N(C/C=C/CCCCCC)c3ccc(C)cc3)nc2)cn1 [compound [7]] , give the reported IC50.
A) 789
